Assay: Area under curve was determined in rat after a 3 mg/kg of oral dose
Assay type: ADME, organism-based
Parameters: dose 3 mg/kg, route oral
Settings: in vivo
Reported property: AUC (ng·h/mL)
Report only the number, with the unit ng·h/mL understood.

// query Which AUC is reported for this compound? CC1(C)NC(=O)N(C[C@@H](COc2ccc(-c3ccc(OC(F)(F)F)cc3)cc2)N(O)C=O)C1=O
// result 24000

----------
Assay: Area under curve was determined in monkey after a 3 mg/kg of oral dose
Format: ADME, organism-based
Design: dose 3 mg/kg, route oral
Conditions: cercopithecidae, in vivo
Reported property: AUC (ng·h/mL)
Report only the number, with the unit ng·h/mL understood.

// query Which AUC is reported for this molecule? CC1(C)NC(=O)N(C[C@@H](COc2ccc(-c3ccc(OC(F)(F)F)cc3)cc2)N(O)C=O)C1=O
// result 43000

----------
Assay: Absolute bioavailability was evaluated in monkey
Type: ADME, organism-based
Conditions: cercopithecidae, in vivo
Reported property: bioavailability

// query Which bioavailability is reported for this compound? CC1(C)NC(=O)N(C[C@@H](COc2ccc(-c3ccc(OC(F)(F)F)cc3)cc2)N(O)C=O)C1=O
// result 95%

----------
Assay: Half-life was determined in monkey after 3 mg/kg of i.v. dose
Type: ADME, organism-based
Design: dose 3 mg/kg, route intravenous
Details: cercopithecidae, in vivo, iv
Reported property: half-life (h)
Report only the number, with the unit h understood.

Consider the following illustrative entries.
// query Which half-life is reported for this molecule? CC1(C)NC(=O)N(CC(COc2ccc(-c3ccc(S(C)(=O)=O)cc3)cc2)N(O)C=O)C1=O (stereo unspecified)
// result 5

// query Which half-life is reported for this molecule? CC1(C)NC(=O)N(CC(COc2ccc(-c3ccc(OC(F)(F)F)cc3)cc2)N(O)C=O)C1=O (stereo unspecified)
// result 20

// query Which half-life is reported for this molecule? CC1(C)NC(=O)N(CC(COc2ccc(-c3ccc(C#N)cc3)cc2)N(O)C=O)C1=O (stereo unspecified)
// result 8

// query Which half-life is reported for this molecule? CCCOc1ccc(-c2ccc(OCC(CN3C(=O)NC(C)(C)C3=O)N(O)C=O)cc2)cc1 (stereo unspecified)
// result 1

// query Which half-life is reported for this molecule? COCCOc1ccc(-c2ccc(OCC(CN3C(=O)NC(C)(C)C3=O)N(O)C=O)cc2)cc1 (stereo unspecified)
// result 1

Next:
// query Which half-life is reported for this molecule? CCCCc1ccc(-c2ccc(OCC(CN3C(=O)NC(C)(C)C3=O)N(O)C=O)cc2)cc1 (stereo unspecified)
// result 1

----------
Assay: Half-life was determined in dog after a3 mg/kg of iv dose
Format: ADME, organism-based, Canis lupus familiaris
Conditions: in vivo, 3 mg/kg
Reported property: half-life (h)
Report only the number, with the unit h understood.

// query Which half-life is reported for this compound? CC1(C)NC(=O)N(C[C@@H](COc2ccc(-c3ccc(OC(F)(F)F)cc3)cc2)N(O)C=O)C1=O
// result 9

----------
Reported values: IC50 for Matrilysin (Homo sapiens, UniProt P09237), one per item.

// query Which IC50 is reported for this compound? CC1(C)NC(=O)N(C[C@@H](COc2ccc(-c3ccc(OC(F)(F)F)cc3)cc2)N(O)C=O)C1=O
// result > 10 µM

// next item, IC50 requested
// query Which IC50 is reported for this compound? CC1(C)NC(=O)N(C[C@H](COc2ccc(-c3ccc(OC(F)(F)F)cc3)cc2)N(O)C=O)C1=O
// result > 10 µM

----------
Target: Matrix metalloproteinase-9 (Homo sapiens)
Sequence (P14780 whole entry): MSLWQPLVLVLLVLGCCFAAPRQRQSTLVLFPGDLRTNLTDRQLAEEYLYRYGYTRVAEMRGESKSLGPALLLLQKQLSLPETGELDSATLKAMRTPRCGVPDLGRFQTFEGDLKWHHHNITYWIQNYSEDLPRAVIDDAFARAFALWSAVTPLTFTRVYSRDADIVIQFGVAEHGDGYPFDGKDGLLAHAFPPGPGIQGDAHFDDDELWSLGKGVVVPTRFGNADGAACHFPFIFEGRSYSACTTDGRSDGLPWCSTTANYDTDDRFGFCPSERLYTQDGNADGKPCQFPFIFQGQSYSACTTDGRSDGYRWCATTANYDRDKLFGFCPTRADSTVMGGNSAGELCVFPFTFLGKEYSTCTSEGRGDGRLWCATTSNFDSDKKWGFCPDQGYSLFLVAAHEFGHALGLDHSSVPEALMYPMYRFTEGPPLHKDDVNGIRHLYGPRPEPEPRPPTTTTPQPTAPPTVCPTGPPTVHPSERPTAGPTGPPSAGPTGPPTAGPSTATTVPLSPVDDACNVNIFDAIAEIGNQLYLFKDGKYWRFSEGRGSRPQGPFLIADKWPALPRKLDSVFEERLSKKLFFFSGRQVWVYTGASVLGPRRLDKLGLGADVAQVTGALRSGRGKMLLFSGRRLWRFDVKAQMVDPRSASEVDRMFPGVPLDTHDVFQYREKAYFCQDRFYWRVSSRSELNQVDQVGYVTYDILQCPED
Reported property: IC50 (nM)
Report only the number, with the unit nM understood.

// query Fill in the recorded IC50 for this compound, with Matrix metalloproteinase-9 (Homo sapiens) as test system: CC1(C)NC(=O)N(C[C@@H](COc2ccc(-c3ccc(OC(F)(F)F)cc3)cc2)N(O)C=O)C1=O
// result 120

----------
Experiment: Volume of distribution was determined in rat after a 3 mg/kg of iv dose
Format: ADME, organism-based
Parameters: dose 3 mg/kg, route intravenous
Conditions: in vivo, read-out: V
Reported property: Vd (L/kg)
Report only the number, with the unit L/kg understood.

// query Which Vd is reported for this compound? CC1(C)NC(=O)N(C[C@@H](COc2ccc(-c3ccc(OC(F)(F)F)cc3)cc2)N(O)C=O)C1=O
// result 1.2

----------
Tested on: Canis familiaris
Experiment: Plasma clearance value was determined in dog after a 3 mg/kg of iv dose
Format: ADME, organism-based, Canis lupus familiaris
Design: dose 3 mg/kg, route intravenous
Settings: in vivo
Reported property: Clp
Answer format: number, then unit.

// query Which Clp is reported for this molecule? CC1(C)NC(=O)N(C[C@@H](COc2ccc(-c3ccc(OC(F)(F)F)cc3)cc2)N(O)C=O)C1=O
// result 1.83 mL/min/kg

----------
Test: Volume of distribution was determined in dog after a 3 mg/kg of iv dose
Assay type: ADME, organism-based, Canis lupus familiaris
Design: dose 3 mg/kg, route intravenous
Settings: in vivo, read-out: V
Reported property: Vd (L/kg)
Report only the number, with the unit L/kg understood.

// query Which Vd is reported for this compound? CC1(C)NC(=O)N(C[C@@H](COc2ccc(-c3ccc(OC(F)(F)F)cc3)cc2)N(O)C=O)C1=O
// result 0.9

----------
Target: 72 kDa type IV collagenase (Homo sapiens)
Sequence (P08253 whole entry): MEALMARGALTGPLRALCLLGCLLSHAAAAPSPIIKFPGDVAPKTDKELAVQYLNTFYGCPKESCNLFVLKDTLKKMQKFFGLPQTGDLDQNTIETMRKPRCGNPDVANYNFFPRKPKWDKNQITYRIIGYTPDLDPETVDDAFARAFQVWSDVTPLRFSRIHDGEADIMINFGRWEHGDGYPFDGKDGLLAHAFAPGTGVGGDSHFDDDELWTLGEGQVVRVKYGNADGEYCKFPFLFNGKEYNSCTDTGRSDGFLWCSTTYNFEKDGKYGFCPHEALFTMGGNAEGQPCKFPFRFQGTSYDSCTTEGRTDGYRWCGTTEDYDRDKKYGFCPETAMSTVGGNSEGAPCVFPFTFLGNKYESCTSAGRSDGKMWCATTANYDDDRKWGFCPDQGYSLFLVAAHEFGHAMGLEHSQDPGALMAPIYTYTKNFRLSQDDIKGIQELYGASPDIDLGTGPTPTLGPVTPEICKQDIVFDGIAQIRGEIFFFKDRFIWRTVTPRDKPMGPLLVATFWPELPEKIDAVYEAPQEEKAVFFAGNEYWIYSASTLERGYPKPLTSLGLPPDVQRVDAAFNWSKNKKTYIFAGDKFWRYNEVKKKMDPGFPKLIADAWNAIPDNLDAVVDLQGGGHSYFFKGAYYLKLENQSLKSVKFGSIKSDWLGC
Overview of recorded pIC50 for various compounds
As a rule, pIC50 stands for the negative log10 of the concentration, concentration in M.

// query Fill in the recorded pIC50 for this compound, with 72 kDa type IV collagenase (Homo sapiens) as test system: CC1(C)NC(=O)N(CC(COc2ccc(-c3ccc(OC(F)(F)F)cc3)cc2)N(O)C=O)C1=O (centres undefined)
// result 8.22

// query Fill in the recorded pIC50 for this compound, with 72 kDa type IV collagenase (Homo sapiens) as test system: CCOc1ccc(-c2ccc(OCC(CN3C(=O)NC(C)(C)C3=O)N(O)C=O)cc2)cc1 (centres undefined)
// result 9.00

// query Fill in the recorded pIC50 for this compound, with 72 kDa type IV collagenase (Homo sapiens) as test system: CN1C(=O)N(CC(COc2ccc(-c3cccc(C#N)c3)cc2)N(O)C=O)C(=O)C1(C)C (centres undefined)
// result 5.89

// query Fill in the recorded pIC50 for this compound, with 72 kDa type IV collagenase (Homo sapiens) as test system: CC1(C)NC(=O)N(CC(COc2ccc(-c3ccc(C#N)cc3)cc2)N(O)C=O)C1=O (centres undefined)
// result 8.10

// query Fill in the recorded pIC50 for this compound, with 72 kDa type IV collagenase (Homo sapiens) as test system: CC1(C)NC(=O)N(C[C@H](COc2ccc(-c3ccc(OC(F)(F)F)cc3)cc2)N(O)C=O)C1=O
// result 6.74

// query Fill in the recorded pIC50 for this compound, with 72 kDa type IV collagenase (Homo sapiens) as test system: CC1(C)NC(=O)N(C[C@@H](COc2ccc(-c3ccc(OC(F)(F)F)cc3)cc2)N(O)C=O)C1=O
// result 8.40

// query Fill in the recorded pIC50 for this compound, with 72 kDa type IV collagenase (Homo sapiens) as test system: CN1C(=O)N(CC(COc2ccc(-c3ccco3)cc2)N(O)C=O)C(=O)C1(C)C (centres undefined)
// result 7.07

----------
Test: Absolute bioavailability was evaluated in rat
Format: ADME, organism-based
Details: in vivo
Reported property: bioavailability (%)
Report only the number, with the unit % understood.

// query Which bioavailability is reported for this compound? CC1(C)NC(=O)N(C[C@@H](COc2ccc(-c3ccc(OC(F)(F)F)cc3)cc2)N(O)C=O)C1=O
// result 93

----------
Molecular target: Stromelysin-1 (Homo sapiens)
Sequence (P08254 whole entry): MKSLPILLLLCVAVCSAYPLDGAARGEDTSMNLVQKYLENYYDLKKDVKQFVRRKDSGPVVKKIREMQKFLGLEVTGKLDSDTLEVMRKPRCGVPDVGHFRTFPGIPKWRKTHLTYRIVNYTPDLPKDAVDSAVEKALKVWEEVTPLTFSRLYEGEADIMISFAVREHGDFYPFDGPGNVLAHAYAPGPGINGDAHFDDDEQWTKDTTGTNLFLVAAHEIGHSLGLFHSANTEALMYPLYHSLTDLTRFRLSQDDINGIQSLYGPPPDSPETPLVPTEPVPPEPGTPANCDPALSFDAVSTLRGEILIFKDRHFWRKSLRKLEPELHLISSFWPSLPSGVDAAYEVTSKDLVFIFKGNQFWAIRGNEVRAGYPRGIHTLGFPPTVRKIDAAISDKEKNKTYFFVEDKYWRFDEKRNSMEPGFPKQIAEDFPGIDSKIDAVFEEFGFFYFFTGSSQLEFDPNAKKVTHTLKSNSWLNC
Reported property: IC50 (µM)
Report only the number, with the unit µM understood.

// query Which IC50 is reported for this compound? CC1(C)NC(=O)N(C[C@H](COc2ccc(-c3ccc(OC(F)(F)F)cc3)cc2)N(O)C=O)C1=O
// result 3.1

Next:
// query Which IC50 is reported for this compound? CC1(C)NC(=O)N(C[C@@H](COc2ccc(-c3ccc(OC(F)(F)F)cc3)cc2)N(O)C=O)C1=O
// result 0.042

----------
Test: Volume of distribution was determined in monkey after a 3 mg/kg of iv dose
Assay type: ADME, organism-based
Parameters: dose 3 mg/kg, route intravenous
Conditions: cercopithecidae, in vivo, read-out: V
Reported property: Vd (L/kg)
Report only the number, with the unit L/kg understood.

// query Which Vd is reported for this compound? CC1(C)NC(=O)N(C[C@@H](COc2ccc(-c3ccc(OC(F)(F)F)cc3)cc2)N(O)C=O)C1=O
// result 1.2

----------
Overview of recorded pIC50 for various molecules
Sequence of the target: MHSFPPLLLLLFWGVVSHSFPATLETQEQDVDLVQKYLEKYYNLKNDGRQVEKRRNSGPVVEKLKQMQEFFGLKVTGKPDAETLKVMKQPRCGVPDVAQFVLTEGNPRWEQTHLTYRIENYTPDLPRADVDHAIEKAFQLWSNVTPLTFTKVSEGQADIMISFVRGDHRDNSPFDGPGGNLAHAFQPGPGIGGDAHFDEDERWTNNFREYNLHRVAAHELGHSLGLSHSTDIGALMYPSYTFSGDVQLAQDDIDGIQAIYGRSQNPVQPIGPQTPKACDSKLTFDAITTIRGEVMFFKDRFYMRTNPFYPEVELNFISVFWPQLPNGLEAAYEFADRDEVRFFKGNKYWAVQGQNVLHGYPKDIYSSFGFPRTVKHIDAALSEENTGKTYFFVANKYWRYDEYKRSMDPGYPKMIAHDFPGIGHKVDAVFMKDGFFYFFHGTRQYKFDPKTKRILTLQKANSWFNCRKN
As a rule, pIC50 stands for the negative log10 of the concentration, concentration in M.

Consider the following illustrative entries.
// query Which pIC50 is reported for this molecule? Cc1ccc(-c2ccc(OCC(CN3C(=O)N(C)C(C)(C)C3=O)N(O)C=O)cc2)cc1 (centres undefined)
// result 5.80

// query Which pIC50 is reported for this molecule? CN1C(=O)N(CC(COc2ccc(-c3cccs3)cc2)N(O)C=O)C(=O)C1(C)C (centres undefined)
// result 5.44

// query Which pIC50 is reported for this molecule? CC1(C)NC(=O)N(C[C@@H](COc2ccc(-c3ccc(OC(F)(F)F)cc3)cc2)N(O)C=O)C1=O
// result 5.34

// next item, pIC50 requested
// query Which pIC50 is reported for this molecule? CN1C(=O)N(CC(COc2ccc(-c3ccccc3)cc2)N(O)C=O)C(=O)C1(C)C (centres undefined)
// result 5.96
